biological target: His-His-USP7 (aa208-560, [C315A]) (Homo sapiens (Human), UniProt Q93009, C315A); experiment: Evaluation of the inhibition of USP7 by Fluorescence Intensity (FLINT) readings; type: biochemical; conditions: 0.25 nM USP7, 60 minutes at 30° C. preincubation, 500 nM Ubiquitin-Rhodamine-110 substrate, 50% reduction in kinetic rate
Sequence (Q93009 208-560 C315A): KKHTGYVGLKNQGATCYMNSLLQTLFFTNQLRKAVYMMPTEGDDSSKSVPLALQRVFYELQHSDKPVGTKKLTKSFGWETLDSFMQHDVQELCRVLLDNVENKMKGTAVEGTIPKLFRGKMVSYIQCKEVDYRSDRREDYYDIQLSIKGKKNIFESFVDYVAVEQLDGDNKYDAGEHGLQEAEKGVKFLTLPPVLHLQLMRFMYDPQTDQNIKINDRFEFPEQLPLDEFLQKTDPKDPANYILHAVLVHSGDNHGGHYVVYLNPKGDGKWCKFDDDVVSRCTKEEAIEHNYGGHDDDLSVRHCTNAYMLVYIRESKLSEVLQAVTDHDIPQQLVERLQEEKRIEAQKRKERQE
TEST READOUT: IC50 (nM)

1. CN1CC[C@@H](C(=O)N2CCC(O)(Cn3cnc4c(ccn4-c4ccc(Cl)cc4)c3=O)CC2)[C@H](c2ccccc2)C1 48.6
2. CC(C)(C)OC(=O)N1CC[C@@H](C(=O)N2CCC(O)(Cn3cnc4c(cnn4-c4ccc5c(c4)OCCO5)c3=O)CC2)[C@H](c2ccccc2)C1 68.7
3. COc1cccc(-n2ccc3c(=O)n(CC4(O)CCN(C(=O)[C@@H]5CCNC[C@H]5c5ccccc5)CC4)cnc32)c1 48.6
